These entries and their values trace back to patent US20190119284A1.

- Test Summary: Pharmacokinetic study, IP administration in male CD-1 mice
- Type: in vivo
- Applied Conditions: male, CD-1, mouse, plasma, ip, 2 mg/kg, Mean
Below, each entry is listed alongside its reported AUC(0-t).
The response must be a number in ng·h/mL with no trailing unit.

COc1ccc(-c2cccc(F)c2)cc1Nc1ncnc2[nH]nc(-c3cc[nH]n3)c12 [8168B]    175

Consider now this further molecule.
Input: Sample COc1ccc(-c2ccc(F)cc2)cc1Nc1ncnc2[nH]nc(-c3cc[nH]n3)c12 [8168C] — what was its AUC(0-t)?
Output: 170

---

Below, each entry is listed alongside its reported concentration at 0.25 h.
- Test Summary: Pharmacokinetic study, IV administration in male CD-1 mice
- Type: in vivo
- Applied Conditions: male, CD-1, mouse, plasma, iv, 2 mg/kg, individual mice M1-M3
The response must be a number in ng/mL with no trailing unit.

COc1ccc(-c2ccc(F)cc2)cc1Nc1ncnc2[nH]nc(-c3cc[nH]n3)c12 [8168C]    382

Consider now this further molecule.
Input: Sample COc1ccc(-c2cccc(F)c2)cc1Nc1ncnc2[nH]nc(-c3cc[nH]n3)c12 [8168B] — what was its concentration at 0.25 h?
Output: 31.9

---

- Test Summary: Pharmacokinetic study, IP administration in male CD-1 mice
- Assay type: in vivo
- Applied Conditions: male, CD-1, mouse, plasma, ip, 2 mg/kg, individual mice M1-M3
Measured Property: concentration at 1 h (ng/mL)
The response must be a number in ng/mL with no trailing unit.

COc1ccc(-c2cccc(F)c2)cc1Nc1ncnc2[nH]nc(-c3cc[nH]n3)c12 [8168B]    101

Consider now this further compound.
Input: Sample COc1ccc(-c2ccc(F)cc2)cc1Nc1ncnc2[nH]nc(-c3cc[nH]n3)c12 [8168C] — what was its concentration at 1 h?
Output: 85.2

---

Below, each entry is listed alongside its reported clearance.
- Test Summary: Pharmacokinetic study, IV administration in male CD-1 mice
- Assay type: in vivo
- Applied Conditions: male, CD-1, mouse, plasma, iv, 2 mg/kg, Mean
The response must be a number in mL/min/kg with no trailing unit.

COc1ccc(-c2ccc(F)cc2)cc1Nc1ncnc2[nH]nc(-c3cc[nH]n3)c12 [8168C]    66.5

Input: Sample COc1ccc(-c2cccc(F)c2)cc1Nc1ncnc2[nH]nc(-c3cc[nH]n3)c12 [8168B] — what was its clearance?
Output: 93.3

---

Below, each entry is listed alongside its reported Vd.
- Test Summary: Pharmacokinetic study, IV administration in male CD-1 mice
- Format: in vivo
- Applied Conditions: male, CD-1, mouse, plasma, iv, 2 mg/kg, Mean, read-out: Vd
Report field: quantity (unit follows the number).

Input: Sample COc1ccc(-c2ccc(F)cc2)cc1Nc1ncnc2[nH]nc(-c3cc[nH]n3)c12 [8168C] — what was its Vd?
Output: 8.32 L/kg

Input: Here is the next molecule: COc1ccc(-c2cccc(F)c2)cc1Nc1ncnc2[nH]nc(-c3cc[nH]n3)c12 [8168B]
Output: 206 L/kg

---

- Test Summary: Pharmacokinetic study, IP administration in male CD-1 mice
- Format: in vivo
- Applied Conditions: male, CD-1, mouse, plasma, ip, 2 mg/kg, individual mice M1-M3
Measured Property: AUC (ng·h/mL)
The response must be a number in ng·h/mL with no trailing unit.

Input: Sample COc1ccc(-c2cccc(F)c2)cc1Nc1ncnc2[nH]nc(-c3cc[nH]n3)c12 [8168B] — what was its AUC?
Output: 203

---

- Test Summary: Pharmacokinetic study, IV administration in male CD-1 mice
- Type: in vivo
- Applied Conditions: male, CD-1, mouse, plasma, iv, 2 mg/kg, Mean, read-out: MRT0-last
Below, each entry is listed alongside its reported MRT last.

COc1ccc(-c2cccc(F)c2)cc1Nc1ncnc2[nH]nc(-c3cc[nH]n3)c12 [8168B]    9.46 h

Consider now this further molecule.
Input: Sample COc1ccc(-c2ccc(F)cc2)cc1Nc1ncnc2[nH]nc(-c3cc[nH]n3)c12 [8168C] — what was its MRT last?
Output: 0.96 h

---

- Test Summary: Pharmacokinetic study, IV administration in male CD-1 mice
- Assay type: in vivo
- Applied Conditions: male, CD-1, mouse, plasma, iv, 2 mg/kg, individual mice M1-M3, read-out: Vd
Measured Property: Vd

COc1ccc(-c2cccc(F)c2)cc1Nc1ncnc2[nH]nc(-c3cc[nH]n3)c12 [8168B]    277 L/kg

Consider now this further compound.
Input: Sample COc1ccc(-c2ccc(F)cc2)cc1Nc1ncnc2[nH]nc(-c3cc[nH]n3)c12 [8168C] — what was its Vd?
Output: 9.82 L/kg

---

- Target: 2YF/3wt + NRG Ba/F3 cells (HER2YF/HER3wt) (Homo sapiens, UniProt P04626, Y1005F/Y1023F/Y1112F/Y1127F/Y1139F/Y1196F/Y1221F/Y1222F/Y1248F, cells depend on it)
- Sequence (P04626 whole entry Y1005F/Y1023F/Y1112F/Y1127F/Y1139F/Y1196F/Y1221F/Y1222F/Y1248F): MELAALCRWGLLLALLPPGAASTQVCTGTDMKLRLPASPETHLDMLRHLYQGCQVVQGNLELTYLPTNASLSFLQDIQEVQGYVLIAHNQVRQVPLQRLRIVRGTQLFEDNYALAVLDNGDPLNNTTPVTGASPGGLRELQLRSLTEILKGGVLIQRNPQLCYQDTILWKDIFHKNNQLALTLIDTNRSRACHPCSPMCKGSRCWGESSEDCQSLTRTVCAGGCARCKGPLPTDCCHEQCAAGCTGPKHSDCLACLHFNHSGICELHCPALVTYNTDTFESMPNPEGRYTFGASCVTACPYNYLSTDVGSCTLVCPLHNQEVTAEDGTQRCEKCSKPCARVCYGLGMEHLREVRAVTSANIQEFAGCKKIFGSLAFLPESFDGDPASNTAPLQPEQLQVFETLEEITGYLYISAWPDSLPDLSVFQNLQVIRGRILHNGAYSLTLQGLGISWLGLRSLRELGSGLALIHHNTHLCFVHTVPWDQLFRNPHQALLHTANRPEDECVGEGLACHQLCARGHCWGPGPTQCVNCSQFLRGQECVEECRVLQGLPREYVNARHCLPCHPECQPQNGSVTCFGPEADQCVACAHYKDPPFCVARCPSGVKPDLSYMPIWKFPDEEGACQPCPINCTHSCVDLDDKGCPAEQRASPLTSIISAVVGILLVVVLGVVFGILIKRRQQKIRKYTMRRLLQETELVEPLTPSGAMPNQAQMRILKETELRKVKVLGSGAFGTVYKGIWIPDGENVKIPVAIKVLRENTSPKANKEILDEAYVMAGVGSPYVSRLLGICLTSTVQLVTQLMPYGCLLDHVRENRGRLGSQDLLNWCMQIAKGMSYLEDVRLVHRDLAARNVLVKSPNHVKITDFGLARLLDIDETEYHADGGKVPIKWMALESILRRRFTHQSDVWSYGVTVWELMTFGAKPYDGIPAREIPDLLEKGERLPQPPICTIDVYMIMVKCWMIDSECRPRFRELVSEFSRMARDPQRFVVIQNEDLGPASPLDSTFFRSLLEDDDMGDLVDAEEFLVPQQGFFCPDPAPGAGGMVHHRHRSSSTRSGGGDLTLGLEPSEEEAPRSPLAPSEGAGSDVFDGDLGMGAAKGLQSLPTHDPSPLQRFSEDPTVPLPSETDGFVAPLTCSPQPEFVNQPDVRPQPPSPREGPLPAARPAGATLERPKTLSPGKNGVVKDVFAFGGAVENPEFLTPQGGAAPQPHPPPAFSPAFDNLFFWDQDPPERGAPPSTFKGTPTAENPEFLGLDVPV
- Test Summary: Ba/F3 proliferation assay, 2YF/3wt + NRG
- Assay type: cell-based
- Applied Conditions: Tables 7 and 8; read-out: Ba/F3 line IC50, HER2YF/HER3 + NRG
GI50 strictly under 50 nM means rule met; at 50 nM or over means rule not met.

Previously resolved entries follow.
COc1ccc(-c2ccccc2)cc1Nc1ncnc2[nH]nc(-c3cn[nH]c3)c12 [Cmpd 45E]    rule not met
CN(C)c1ccc(-c2ccsc2)cc1Nc1ncnc2[nH]nc(-c3cc[nH]n3)c12 [104A]    rule met
COc1ccc(-c2ccc(C)cc2)cc1Nc1ncnc2[nH]nc(-c3ccsc3)c12 [Cmpd 39C]    rule not met

Input: Could you please tell me whether GI50 recorded for COc1ccc(-c2ccoc2)cc1Nc1ncnc2[nH]nc(-c3ccnn3C)c12 is less than 50 nM?
Output: rule not met

Input: Here is the next molecule: CCOc1ccc(-c2ccccc2)cc1Nc1ncnc2[nH]nc(-c3cn[nH]c3)c12
Output: rule not met

Input: Here is the next molecule: COc1ccc(-c2ccccn2)cc1Nc1ncnc2[nH]cc(-c3cc[nH]n3)c12
Output: rule not met

Input: Here is the next molecule: COc1ccc(-c2ccccc2C)cc1Nc1ncnc2[nH]nc(-c3ccsc3)c12 [Cmpd 39A]
Output: rule not met

Input: Here is the next molecule: COc1ccc(-c2ccccc2)cc1Nc1ncnc2[nH]ncc12
Output: rule not met

Input: Here is the next molecule: COc1ccc(-c2cccs2)cc1Nc1ncnc2[nH]cc(-c3cc[nH]n3)c12
Output: rule met

---

Below, each entry is listed alongside its reported AUC0-inf.
- Test Summary: Pharmacokinetic study, IV administration in male CD-1 mice
- Type: in vivo
- Applied Conditions: male, CD-1, mouse, plasma, iv, 2 mg/kg, Mean, read-out: AUC0-inf
The response must be a number in µg·h/mL with no trailing unit.

COc1ccc(-c2cccc(F)c2)cc1Nc1ncnc2[nH]nc(-c3cc[nH]n3)c12 [8168B]    0.385

Input: Sample COc1ccc(-c2ccc(F)cc2)cc1Nc1ncnc2[nH]nc(-c3cc[nH]n3)c12 [8168C] — what was its AUC0-inf?
Output: 0.506

---

- Test Summary: Pharmacokinetic study, IP administration in male CD-1 mice
- Assay type: in vivo
- Applied Conditions: male, CD-1, mouse; IP 2.0 mg/kg; plasma; individual mice M1-M3
Measured Property: Tmax (min)
The response must be a number in min with no trailing unit.

COc1ccc(-c2cccc(F)c2)cc1Nc1ncnc2[nH]nc(-c3cc[nH]n3)c12 [8168B]    15

Consider now this further compound.
Input: Sample COc1ccc(-c2ccc(F)cc2)cc1Nc1ncnc2[nH]nc(-c3cc[nH]n3)c12 [8168C] — what was its Tmax?
Output: 15

---

- Test Summary: Pharmacokinetic study, IV administration in male CD-1 mice
- Type: in vivo
- Applied Conditions: male, CD-1, mouse, plasma, iv, 2 mg/kg, Mean
Measured Property: concentration at 1 h (ng/mL)
The response must be a number in ng/mL with no trailing unit.

COc1ccc(-c2ccc(F)cc2)cc1Nc1ncnc2[nH]nc(-c3cc[nH]n3)c12 [8168C]    146

Consider now this further compound.
Input: Sample COc1ccc(-c2cccc(F)c2)cc1Nc1ncnc2[nH]nc(-c3cc[nH]n3)c12 [8168B] — what was its concentration at 1 h?
Output: 17.8

---

- Target: 2YF/3wt + NRG Ba/F3 cells (HER2YF/HER3wt) (Homo sapiens, UniProt P04626, Y1005F/Y1023F/Y1112F/Y1127F/Y1139F/Y1196F/Y1221F/Y1222F/Y1248F, cells depend on it)
- Test Summary: Ba/F3 proliferation assay, 2YF/3wt + NRG
- Assay type: cell-based
- Applied Conditions: Tables 7 and 8; read-out: Ba/F3 line IC50, HER2YF/HER3 + NRG
Below, each entry is listed alongside its reported GI50.
The response must be a number in nM with no trailing unit.

COc1ccc(-c2ccccc2)cc1Nc1ncnc2[nH]nc(-c3ccc[nH]3)c12 [Cmpd 45C]    952
COc1ccc(-c2ccccc2)cc1Nc1ncnc2[nH]nc(-c3cccc(C(C)=O)c3)c12    148

Consider now this further compound.
Input: Sample CC(=O)c1cccc(-c2n[nH]c3ncnc(Nc4cc(-c5ccccc5)ccc4O)c23)c1 [Cmpd 191A] — what was its GI50?
Output: 150
